Tested on: Nucleic Acid
assay_remarks: Binding affinity to human c-KIT1 (5'-FAM-GGGAGGGCGCTGGGAGGAGGG-TAMRA-3') DNA assessed as change in melting temperature at 1 uM by FRET-melting assay (reference value: 54.4 degC)
Format: nucleic-acid assay
Given measured deltaTm, output True if it is greater than or equal to 20 K and False if not.

given_smiles | classification
CN1CCN(CCCn2c3c(c4ccccc4c2=O)C(=O)c2ccccc2-3)CC1 | True
O=C1c2ccccc2-c2c1c1ccccc1c(=O)n2CCCn1ccnc1 | False
O=C1c2ccccc2-c2c1c1ccccc1c(=O)n2CCCN1CCCC1 | True

Consider the record given below.
[ask] Check if deltaTm >= 20 K (inclusive). Item: `O=C1c2ccccc2-c2c1c1ccccc1c(=O)n2CCCN1CCOCC1`
[reply] False

###

Test system: Nucleic Acid
assay_remarks: Binding affinity to double stranded-DNA (50-FAM-TAT AGC TAT A-HEG-TAT AGC TAT A-TAMRA-30) assessed as change in melting temperature at 1 uM by FRET-melting assay (reference value: 62.7 degC)
Format: nucleic-acid assay
Given measured deltaTm, output Condition met if it is greater than or equal to 0.6 K and Condition not met if not.

given_smiles | classification
O=C1c2ccccc2-c2c1c1ccccc1c(=O)n2CCCN1CCCC1 | Condition met
O=C1c2ccccc2-c2c1c1ccccc1c(=O)n2CCCn1ccnc1 | Condition not met
CN(C)CCCn1c2c(c3ccccc3c1=O)C(=O)c1ccccc1-2.Cl | Condition met

Consider the record given below.
[ask] Check if deltaTm >= 0.6 K (inclusive). Item: `CN1CCN(CCCn2c3c(c4ccccc4c2=O)C(=O)c2ccccc2-3)CC1`
[reply] Condition met

###

Examples of compounds with documented Activity follow.
System: Nucleic Acid
assay_remarks: Binding affinity to double stranded-DNA (50-FAM-TAT AGC TAT A-HEG-TAT AGC TAT A-TAMRA-30) assessed as concentration required to cause half maximal change in melting temperature by FRET-melting assay (reference value: 62.7 degC)
Format: nucleic-acid assay

A selection of reference data follows.
given_smiles | Activity
O=C1c2ccccc2-c2c1c1ccccc1c(=O)n2CCCN1CCCC1 | 9 µM
CN1CCN(CCCn2c3c(c4ccccc4c2=O)C(=O)c2ccccc2-3)CC1 | > 10 µM
O=C1c2ccccc2-c2c1c1ccccc1c(=O)n2CCCn1ccnc1 | > 10 µM
O=C1c2ccccc2-c2c1c1ccccc1c(=O)n2CCCN1CCOCC1 | > 10 µM

Proceeding to the next compound to report its Activity.
[ask] Consider the compound shown here: `CN(C)CCCn1c2c(c3ccccc3c1=O)C(=O)c1ccccc1-2.Cl` What is its recorded Activity?
[reply] > 10 µM

###

Examples of molecules with documented Activity follow.
Test system: Nucleic Acid
assay_remarks: Binding affinity to human c-KIT1 (5'-FAM-GGGAGGGCGCTGGGAGGAGGG-TAMRA-3') DNA assessed as concentration required to cause half maximal change in melting temperature by FRET-melting assay (reference value: 54.4 degC)
Type: nucleic-acid assay
Only the number, expressed in µM, is required.

A selection of reference data follows.
given_smiles | measure | readout_value
CN(C)CCCn1c2c(c3ccccc3c1=O)C(=O)c1ccccc1-2.Cl | Activity | 0.95
O=C1c2ccccc2-c2c1c1ccccc1c(=O)n2CCCN1CCOCC1 | Activity | 8.9
CN1CCN(CCCn2c3c(c4ccccc4c2=O)C(=O)c2ccccc2-3)CC1 | Activity | 0.59

Proceeding to the next molecule to report its Activity.
[ask] Any idea what Activity came out for `O=C1c2ccccc2-c2c1c1ccccc1c(=O)n2CCCN1CCCC1` on Nucleic Acid?
[reply] 0.93

###

System: Nucleic Acid
assay_remarks: Binding affinity to human c-KIT2 (5'-FAM-GGGCGGGCGCGAGGGAGGGG-TAMRA-3') DNA assessed as change in melting temperature at 1 uM by FRET-melting assay (reference value: 72.7 degC)
Assay type: nucleic-acid assay
Examples of molecules with documented deltaTm follow.
Only the number, expressed in K, is required.

A selection of reference data follows.
given_smiles | output_unit | readout_value
O=C1c2ccccc2-c2c1c1ccccc1c(=O)n2CCCN1CCOCC1 | K | 3.9
O=C1c2ccccc2-c2c1c1ccccc1c(=O)n2CCCN1CCCC1 | K | 14.4
CN(C)CCCn1c2c(c3ccccc3c1=O)C(=O)c1ccccc1-2.Cl | K | 13
O=C1c2ccccc2-c2c1c1ccccc1c(=O)n2CCCn1ccnc1 | K | 13.2

Proceeding to the next molecule to report its deltaTm.
[ask] Consider the molecule shown here: `CN1CCN(CCCn2c3c(c4ccccc4c2=O)C(=O)c2ccccc2-3)CC1` What is its recorded deltaTm?
[reply] 12.2

###

Tested on: Nucleic Acid
assay_remarks: Binding affinity to human telomeric (5'-FAM-GGGTTAGGGTTAGGGTTAGGG-TAMRA-3') DNA assessed as change in melting temperature at 1 uM by FRET-melting assay (reference value: 59.4 degC)
Type: nucleic-acid assay
Given measured deltaTm, output TRUE if it is greater than or equal to 6 K and FALSE if not.

Record excerpt, results attached:
given_smiles | classification
O=C1c2ccccc2-c2c1c1ccccc1c(=O)n2CCCN1CCOCC1 | FALSE
O=C1c2ccccc2-c2c1c1ccccc1c(=O)n2CCCN1CCCC1 | TRUE
CN1CCN(CCCn2c3c(c4ccccc4c2=O)C(=O)c2ccccc2-3)CC1 | TRUE
CN(C)CCCn1c2c(c3ccccc3c1=O)C(=O)c1ccccc1-2.Cl | TRUE

Consider the record given below.
[ask] Check if deltaTm >= 6 K (inclusive). Item: `O=C1c2ccccc2-c2c1c1ccccc1c(=O)n2CCCn1ccnc1`
[reply] TRUE

###

Examples of compounds with documented Activity follow.
System: Nucleic Acid
assay_remarks: Binding affinity to human telomeric (5'-FAM-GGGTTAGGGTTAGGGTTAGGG-TAMRA-3') DNA assessed as concentration required to cause half maximal change in melting temperature by FRET-melting assay (reference value: 59.4 degC)
Type: nucleic-acid assay
Only the number, expressed in µM, is required.

given_smiles | tested_on | readout_value
CN1CCN(CCCn2c3c(c4ccccc4c2=O)C(=O)c2ccccc2-3)CC1 | Nucleic Acid | 0.98
O=C1c2ccccc2-c2c1c1ccccc1c(=O)n2CCCN1CCCC1 | Nucleic Acid | 1.63

[ask] Consider the compound shown here: `CN(C)CCCn1c2c(c3ccccc3c1=O)C(=O)c1ccccc1-2.Cl` What is its recorded Activity?
[reply] 1.6

###

Tested on: Nucleic Acid
assay_remarks: Binding affinity to human c-KIT2 (5'-FAM-GGGCGGGCGCGAGGGAGGGG-TAMRA-3') DNA assessed as concentration required to cause half maximal change in melting temperature by FRET-melting assay (reference value: 72.7 degC)
Assay type: nucleic-acid assay
Examples of compounds with documented Activity follow.
Only the number, expressed in µM, is required.

[ask] Consider the compound shown here: `O=C1c2ccccc2-c2c1c1ccccc1c(=O)n2CCCN1CCOCC1` What is its recorded Activity?
[reply] 4.4

[ask] Would you mind doing `O=C1c2ccccc2-c2c1c1ccccc1c(=O)n2CCCn1ccnc1` as well?
[reply] 0.62

[ask] Would you mind doing `CN1CCN(CCCn2c3c(c4ccccc4c2=O)C(=O)c2ccccc2-3)CC1` as well?
[reply] 0.84

[ask] Would you mind doing `CN(C)CCCn1c2c(c3ccccc3c1=O)C(=O)c1ccccc1-2.Cl` as well?
[reply] 0.69

[ask] Would you mind doing `O=C1c2ccccc2-c2c1c1ccccc1c(=O)n2CCCN1CCCC1` as well?
[reply] 0.72
